EXPERIMENTAL SYSTEM: T1, cynomolgus FOLR1 protein, His Tag (ACRO F01-C52H8) (cynomolgus, UniProt A0A2K5U044 25-233)
T1 construct: Bought protein coated on ELISA plates; also called Cynomolgus/Rhesus macaque FOLR1, Protein, His Tag; not shown: His tag
T1 sequence (A0A2K5U044 entry or part of it): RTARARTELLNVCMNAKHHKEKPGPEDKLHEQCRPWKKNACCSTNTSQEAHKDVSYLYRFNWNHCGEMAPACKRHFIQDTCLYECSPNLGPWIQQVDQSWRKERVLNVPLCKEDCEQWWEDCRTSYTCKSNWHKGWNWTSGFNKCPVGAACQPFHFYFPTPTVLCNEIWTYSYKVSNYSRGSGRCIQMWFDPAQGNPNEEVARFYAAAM
PROTOCOL: ELISA, coated cyno FOLR1-His, supernatant 25x
Assign OD450 to each entry below.
Write the number in OD450 without appending the unit.

Quote OD450 reported for F131 (antibody, V domains shown, also called clone F131; F131 mAb) VH: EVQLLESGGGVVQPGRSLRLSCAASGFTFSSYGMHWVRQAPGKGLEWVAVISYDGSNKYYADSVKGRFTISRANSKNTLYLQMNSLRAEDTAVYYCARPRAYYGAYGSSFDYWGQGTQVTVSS VL: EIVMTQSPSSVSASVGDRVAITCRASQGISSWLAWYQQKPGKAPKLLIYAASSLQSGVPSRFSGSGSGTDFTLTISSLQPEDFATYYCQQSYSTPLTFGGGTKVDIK please.
1.09

Quote OD450 reported for F40 (antibody, V domains shown, Tested as full-length IgG with an IgG1 Fc from HEK293, as supernatant or purified; also called clone F40; anti-FOLR1 antibody F40) VH: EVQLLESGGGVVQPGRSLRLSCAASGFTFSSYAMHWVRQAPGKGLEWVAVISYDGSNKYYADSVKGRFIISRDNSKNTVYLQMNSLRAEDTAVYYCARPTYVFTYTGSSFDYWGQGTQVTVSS VL: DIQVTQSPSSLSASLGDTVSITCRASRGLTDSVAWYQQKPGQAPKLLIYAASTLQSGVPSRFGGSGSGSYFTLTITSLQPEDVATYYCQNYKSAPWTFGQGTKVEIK please.
0.924

Quote OD450 reported for F138 (antibody, V domains shown, Tested as full-length IgG with an IgG1 Fc, HEK293 supernatant; also called clone F138; anti-FOLR1 antibody F138) VH: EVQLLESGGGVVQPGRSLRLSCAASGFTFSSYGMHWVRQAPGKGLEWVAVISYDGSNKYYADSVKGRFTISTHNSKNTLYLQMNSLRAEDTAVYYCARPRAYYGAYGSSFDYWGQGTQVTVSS VL: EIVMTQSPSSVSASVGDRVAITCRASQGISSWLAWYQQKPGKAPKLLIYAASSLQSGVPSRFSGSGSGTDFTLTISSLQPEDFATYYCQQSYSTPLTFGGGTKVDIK please.
1.17
